Entries and their melting point values follow.
Residues, ends and D or L forms follow the SMILES beside them. *: point of attachment. OiPr = CC(C)O*

Example compounds with recorded melting point:
>>> assay_result("Cc1cc(OC(C)C)ccc1N1CCCn2c1nc1c(Cl)ccc(C(OC(F)F)C(F)(F)F)c12 (stereo not given)")
"198 to 204 °C"
>>> assay_result("CCCCC1=C(C#N)C(c2cccc3nonc23)c2c[nH]nc2N1 (stereo not given)")
"200 °C"
>>> assay_result("CCOC(=O)c1cc(OC2COCCC2=O)[nH]n1 (stereo not given)")
"121 to 123 °C"
>>> assay_result("O=C(c1ccccc1)c1cccnc1Cl")
"35 to 37 °C"
>>> assay_result("CC(C)OC(=O)C(C)NC(=O)C(CC(=O)O)NC(=O)C(C)N (stereo not drawn) (H-Ala-Asp-Ala-OiPr; configuration not given here)")
"219 to 221 °C"

// field: melting point; key: "N#CN=C(Nc1cnc(Cl)c(N)c1)NC1(c2ccccc2)CCC1" ; value = 220 to 221 °C

// field: melting point; key: "COc1ccc2ccccc2c1/C=C/NC=O" ; value = 160 to 162 °C

// field: melting point; key: "COc1cc(C(=O)C=Cc2ccccc2)ccc1O" ; value = 61 to 64 °C

// field: melting point; key: "COC(=O)/C(=N/N(C)C)c1ccc(OCCOc2ccc3ccccc3c2)cc1" ; value = 109 to 111 °C

// field: melting point; key: "CCSc1nc(N)ccc1[N+](=O)[O-]" ; value = 132 °C
